Data origin, for the record: the RNAGym collection of RNA variant scans (doi:10.1093/nar/gkz1192)

B1: CPEB3 Ribozyme (parent)
chain: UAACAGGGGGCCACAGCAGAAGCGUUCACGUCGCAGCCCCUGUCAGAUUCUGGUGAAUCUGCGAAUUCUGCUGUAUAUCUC

Variants of: B1
Experiment: self-cleavage, relative activity (ratio to wild type); higher = more cleavage; in vitro, sequencing
Give TRUE when the value for self-cleavage is at least 0.3. Give FALSE when it is less.

Reference set, count: 8
{"columns": ["Variant name", "Classification"],
 "data": [
  ["C34U U76A", "TRUE"],
  ["C27A U43A", "TRUE"],
  ["A47C A64G", "FALSE"],
  ["A15G C59U", "TRUE"],
  ["U49C U69A", "FALSE"],
  ["C62U U69C", "TRUE"],
  ["A35G U67A", "TRUE"],
  ["G6U G10A", "TRUE"]
]}

State whether the measured self-cleavage reaches 0.3, counting equality as reaching it, for C14G A35G
TRUE

State whether the measured self-cleavage reaches 0.3, counting equality as reaching it, for G55A U72C
TRUE

State whether the measured self-cleavage reaches 0.3, counting equality as reaching it, for G6U U67A
FALSE

State whether the measured self-cleavage reaches 0.3, counting equality as reaching it, for C4A A18U
TRUE

State whether the measured self-cleavage reaches 0.3, counting equality as reaching it, for U25C G70C
FALSE

State whether the measured self-cleavage reaches 0.3, counting equality as reaching it, for A21G G33U
FALSE

State whether the measured self-cleavage reaches 0.3, counting equality as reaching it, for G7A G55U
FALSE

State whether the measured self-cleavage reaches 0.3, counting equality as reaching it, for C11U A35U
TRUE

State whether the measured self-cleavage reaches 0.3, counting equality as reaching it, for A65G U72G
TRUE

State whether the measured self-cleavage reaches 0.3, counting equality as reaching it, for A28G U69A
FALSE

State whether the measured self-cleavage reaches 0.3, counting equality as reaching it, for C68U U72G
TRUE

State whether the measured self-cleavage reaches 0.3, counting equality as reaching it, for A47U U48G
FALSE
